assayed-target: β3-adrenergic receptor (Rattus norvegicus, UniProt P26255)
Construct: Rat epididymal fat pads are excised and placed in 0.9% saline; from tissue; host or cells: adipocytes isolated by collagenase from rat epididymal fat pads
Sequence (P26255 whole entry): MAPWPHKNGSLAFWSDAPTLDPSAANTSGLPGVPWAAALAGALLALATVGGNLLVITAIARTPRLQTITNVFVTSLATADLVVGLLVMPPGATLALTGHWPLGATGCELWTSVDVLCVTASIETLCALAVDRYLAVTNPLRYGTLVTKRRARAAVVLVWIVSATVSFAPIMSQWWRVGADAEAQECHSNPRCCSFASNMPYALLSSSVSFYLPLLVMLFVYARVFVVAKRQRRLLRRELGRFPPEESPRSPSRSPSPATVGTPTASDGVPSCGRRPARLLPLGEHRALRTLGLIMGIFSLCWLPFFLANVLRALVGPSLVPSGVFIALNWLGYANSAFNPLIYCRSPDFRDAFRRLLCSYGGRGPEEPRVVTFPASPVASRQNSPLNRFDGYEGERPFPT
assay: Stimulation of adipocyte lipolysis (β3-effect), glycerol generated
Format: cell-based
condition-label: rat epididymal adipocytes, 30 min at 37° C.; concentration giving 50% of the compound's own maximum rate of lipolysis; read-out: Lipolysis (beta3)(EC50 nM)
Where a name gives a salt, the structure may show the parent alone.
Below is a list of entries, each paired with its recorded EC50 value.
The answer should read as a number with its unit following.

>  <compound>
O=C(O)C1(C(=O)O)Oc2cc3c(cc2O1)CC(NCC(O)c1cccc(Cl)c1)CC3 (stereo not shown) [Example 7, disodium salt]

>  <assayed-target>
β3-adrenergic receptor (Rattus norvegicus, UniProt P26255)

>  <EC50>
4000 nM

$$$$
>  <compound>
O=C(O)C1(C(=O)O)Oc2cc3c(cc2O1)CC(NC[C@H](O)c1cccc(Cl)c1)C3 [Example 5, disodium salt]

>  <assayed-target>
β3-adrenergic receptor (Rattus norvegicus, UniProt P26255)

>  <EC50>
100 nM

$$$$
>  <compound>
O=C(O)C1(C(=O)O)Oc2ccc3c(c2O1)C[C@H](NC[C@H](O)c1cccc(Cl)c1)C3 [Example 4, disodium salt]

>  <assayed-target>
β3-adrenergic receptor (Rattus norvegicus, UniProt P26255)

>  <EC50>
14.6 nM

$$$$

Now turn to the next compound.
Hi! What's the reported EC50 for O=C(O)C1(C(=O)O)Oc2ccc3c(c2O1)C[C@@H](NC[C@H](O)c1cccc(Cl)c1)C3 [Example 3, disodium salt] on β3-adrenergic receptor (Rattus norvegicus, UniProt P26255)?
2590 nM
